System: Rattus norvegicus
Conditions: acute; inhalation; Sprague-Dawley
# Lookup of reported LC50 keyed by entry
EXPERIMENTAL_ENDPOINT: LC50

[
  {
    "MOLECULE": "CN(C)CCN(C)C",
    "OBSERVED_VALUE": "> 5610 mg/m3"
  },
  {
    "MOLECULE": "CCC(C)Nc1ccc(NC(C)CC)cc1 (stereo unspecified)",
    "OBSERVED_VALUE": "> 0.2 µg/mL"
  },
  {
    "MOLECULE": "CC(C)(N=C=O)c1cccc(C(C)(C)N=C=O)c1",
    "OBSERVED_VALUE": "0.027 µg/mL"
  },
  {
    "MOLECULE": "C=CC(C)C#N (stereo unspecified)",
    "OBSERVED_VALUE": "9950 mg/m3"
  },
  {
    "MOLECULE": "COC",
    "OBSERVED_VALUE": "309000 mg/m3"
  },
  {
    "MOLECULE": "CSSC [Methyl disulfide]",
    "OBSERVED_VALUE": "3100 mg/m3"
  }
]

----------
Tested on: Rattus norvegicus
Details: acute; dermal; Sprague-Dawley
# Lookup of reported LD50 keyed by entry

[
  {
    "COMPOUND": "O=c1n(CC2CO2)c(=O)n(CC2CO2)c(=O)n1CC1CO1 (centres undefined) [Tris(2,3-epoxypropyl)isocyanurate]",
    "LD50": "> 3100 mg/kg"
  },
  {
    "COMPOUND": "CC(COCC(C)OC(=O)c1ccccc1)OC(=O)c1ccccc1 (centres undefined) [Dipropylene glycol, dibenzoate]",
    "LD50": "> 2000 mg/kg"
  },
  {
    "COMPOUND": "O.O.O=c1nc([O-])n(Cl)c(=O)n1Cl.[Na+] [Sodium dichloroisocyanurate dihydrate]",
    "LD50": "> 5000 mg/kg"
  },
  {
    "COMPOUND": "C=C(C)C(=O)OCCN(C)C [2-(Dimethylamino)ethyl methacrylate]",
    "LD50": "> 2000 mg/kg"
  }
]

----------
# Lookup of reported LOAEL keyed by entry
Tested on: Mus musculus
Conditions: repeat dose other; oral

[
  {
    "COMPOUND": "[Mo].[O-2].[O-2].[O-2].[O-2] [Tetraoxomolybdate(2-)]",
    "LOAEL / mg/kg-day": 2.6
  },
  {
    "COMPOUND": "c1ccc2c(c1)cc1ccc3cccc4ccc2c1c34 [Benzo[a]pyrene]",
    "LOAEL / mg/kg-day": 10
  },
  {
    "COMPOUND": "CCCCC(CC)COC(=O)c1ccccc1C(=O)OCC(CC)CCCC (centres undefined) [Di(2-ethylhexyl) phthalate]",
    "LOAEL / mg/kg-day": 183
  },
  {
    "COMPOUND": "ClC=C(Cl)Cl [Trichloroethylene]",
    "LOAEL / mg/kg-day": 7
  }
]

----------
Tested on: Rattus norvegicus
Settings: acute; oral; gavage; Wistar

[
  {
    "COMPOUND": "CC(CO)CO",
    "READOUT_RELATION": ">",
    "LD50 (mg/kg)": 5000
  },
  {
    "COMPOUND": "CCNc1cccc(C)c1",
    "READOUT_RELATION": "=",
    "LD50 (mg/kg)": 650
  },
  {
    "COMPOUND": "CC(C)CCCCCCc1cccc2c(CCCCCCC(C)C)cccc12",
    "READOUT_RELATION": ">",
    "LD50 (mg/kg)": 5000
  },
  {
    "COMPOUND": "CCCCCCCCCCCCCCCCc1c(Oc2ccccc2S(=O)(=O)O)cccc1S(=O)(=O)O.[Na+].[Na+] [Disodium hexadecyl(sulfophenoxy)benzenesulfonate]",
    "READOUT_RELATION": ">",
    "LD50 (mg/kg)": 5000
  },
  {
    "COMPOUND": "NC(CO)(CO)CO",
    "READOUT_RELATION": ">",
    "LD50 (mg/kg)": 3000
  },
  {
    "COMPOUND": "N#Cc1cccnc1",
    "READOUT_RELATION": "=",
    "LD50 (mg/kg)": 1100
  },
  {
    "COMPOUND": "CCCCCCCCCCCCCCCCCCN(C)CCCCCCCCCCCCCCCCCC",
    "READOUT_RELATION": ">",
    "LD50 (mg/kg)": 2000
  },
  {
    "COMPOUND": "ClC1=C(Cl)C2(Cl)C3CCC4C(CCC3C1(Cl)C2(Cl)Cl)C1(Cl)C(Cl)=C(Cl)C4(Cl)C1(Cl)Cl (stereo not given)",
    "READOUT_RELATION": ">",
    "LD50 (mg/kg)": 25000
  },
  {
    "COMPOUND": "CCCCC(CC)COP(=O)(O)OCC(CC)CCCC (stereo not given) [Bis(2-ethylhexyl) phosphate]",
    "READOUT_RELATION": "=",
    "LD50 (mg/kg)": 1400
  },
  {
    "COMPOUND": "CSSC [Methyl disulfide]",
    "READOUT_RELATION": "=",
    "LD50 (mg/kg)": 190
  }
]

----------
# Lookup of reported LD50 keyed by entry
Tested on: Oryctolagus sp.
Conditions: acute; dermal
Where a name gives a salt, the structure may show the parent alone.
EXPERIMENTAL_ENDPOINT: LD50

[
  {
    "COMPOUND": "ClC1=C(Cl)C2(Cl)C3CCC4C(CCC3C1(Cl)C2(Cl)Cl)C1(Cl)C(Cl)=C(Cl)C4(Cl)C1(Cl)Cl (stereo not given)",
    "EXPERIMENTAL_ENDPOINT": "LD50",
    "OBSERVED_VALUE": "> 8000 mg/kg"
  },
  {
    "COMPOUND": "CCCCC(CC)COP(=O)(O)OCC(CC)CCCC (stereo not given) [Bis(2-ethylhexyl) phosphate]",
    "EXPERIMENTAL_ENDPOINT": "LD50",
    "OBSERVED_VALUE": "1200 mg/kg"
  },
  {
    "COMPOUND": "CCOS(=O)(=O)OCC [Ethyl sulfate (Et2SO4)]",
    "EXPERIMENTAL_ENDPOINT": "LD50",
    "OBSERVED_VALUE": "706 mg/kg"
  },
  {
    "COMPOUND": "CCCCN(CCCC)C(=S)SCSC(=S)N(CCCC)CCCC [4,4'-Methylene bis(dibutyldithiocarbamate)]",
    "EXPERIMENTAL_ENDPOINT": "LD50",
    "OBSERVED_VALUE": "> 2000 mg/kg"
  },
  {
    "COMPOUND": "C=C(C)C(=O)OCCN(C)C [2-(Dimethylamino)ethyl methacrylate]",
    "EXPERIMENTAL_ENDPOINT": "LD50",
    "OBSERVED_VALUE": "> 3000 mg/kg"
  },
  {
    "COMPOUND": "CC(C)[N+](=O)[O-]",
    "EXPERIMENTAL_ENDPOINT": "LD50",
    "OBSERVED_VALUE": "> 200 mg/kg"
  },
  {
    "COMPOUND": "CN(C)C(=S)SSC(=S)N(C)C [Bis(dimethylaminothiocarbonyl) disulfide]",
    "EXPERIMENTAL_ENDPOINT": "LD50",
    "OBSERVED_VALUE": "≥ 2000 mg/kg"
  },
  {
    "COMPOUND": "C1OCOCO1",
    "EXPERIMENTAL_ENDPOINT": "LD50",
    "OBSERVED_VALUE": "> 3980 mg/kg"
  },
  {
    "COMPOUND": "Clc1ccccn1",
    "EXPERIMENTAL_ENDPOINT": "LD50",
    "OBSERVED_VALUE": "< 200 mg/kg"
  },
  {
    "COMPOUND": "CC(C)(C)C1CCC(O)CC1 (stereo not given)",
    "EXPERIMENTAL_ENDPOINT": "LD50",
    "OBSERVED_VALUE": "> 5000 mg/kg"
  }
]

----------
# Lookup of reported LEL keyed by entry
Tested on: Rattus norvegicus
Conditions: uterotrophic; duration: 3 days; injection; subcutaneous; Active

[
  {
    "MOLECULE": "C[C@]12CC[C@H]3C(=CCc4cc(O)ccc43)[C@@H]1CCC2=O [Equilin]",
    "LEL / mg/kg-day": 2
  },
  {
    "MOLECULE": "CCCOC(=O)c1ccc(O)cc1 [Propylparaben]",
    "LEL / mg/kg-day": 65
  },
  {
    "MOLECULE": "C[C@]12CCC(=O)C=C1CC[C@@H]1[C@@H]2CC[C@@]2(C)[C@H]1CC[C@]2(C)O [17-Methyltestosterone]",
    "LEL / mg/kg-day": 10
  },
  {
    "MOLECULE": "c1ccc2cc3c(ccc4ccccc43)cc2c1 [Benz(a)anthracene]",
    "LEL / mg/kg-day": 1
  }
]
